# inhibition at 10 µg/mL listing for each entry below
Target: Lanosterol 14-alpha demethylase (Candida albicans (strain SC5314 / ATCC MYA-2876) (Yeast))
Sequence (P10613 whole entry): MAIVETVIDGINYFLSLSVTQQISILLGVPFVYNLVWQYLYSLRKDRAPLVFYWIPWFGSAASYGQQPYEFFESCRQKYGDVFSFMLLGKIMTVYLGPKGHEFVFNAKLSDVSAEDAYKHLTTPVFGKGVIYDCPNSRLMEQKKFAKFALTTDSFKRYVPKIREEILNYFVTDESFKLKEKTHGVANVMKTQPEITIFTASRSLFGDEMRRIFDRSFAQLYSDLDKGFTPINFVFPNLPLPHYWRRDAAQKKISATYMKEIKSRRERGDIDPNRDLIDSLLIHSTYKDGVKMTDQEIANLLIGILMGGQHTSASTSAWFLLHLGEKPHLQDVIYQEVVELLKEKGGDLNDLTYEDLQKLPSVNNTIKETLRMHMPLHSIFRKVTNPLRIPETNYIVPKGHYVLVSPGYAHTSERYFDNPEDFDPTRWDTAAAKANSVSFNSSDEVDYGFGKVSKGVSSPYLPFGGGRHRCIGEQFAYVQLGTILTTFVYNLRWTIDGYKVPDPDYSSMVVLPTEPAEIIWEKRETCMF
Test: Inhibition of Candida albicans lanosterol 14-alpha demethylase assessed as reduction of ergosterol biosynthesis at 10 ug/ml after 18 hrs by UV spectroscopy analysis
Kindly provide the numeric value in % only, without the unit symbol.

{"compound": "CCCCNC(=O)c1ccc2[nH]nnc2c1", "quantityKind": "inhibition at 10 µg/mL", "numericResult": 7.91}
{"compound": "OC(Cn1cncn1)(Cn1cncn1)c1ccc(F)cc1F [FLUCONAZOLE]", "quantityKind": "inhibition at 10 µg/mL", "numericResult": 45.5}
{"compound": "Cc1ccccc1NCn1nnc2ccccc21", "quantityKind": "inhibition at 10 µg/mL", "numericResult": 11.6}
{"compound": "Cc1ccccc1OCc1ccc2[nH]nnc2c1", "quantityKind": "inhibition at 10 µg/mL", "numericResult": 50.5}
{"compound": "Cc1ccccc1NCc1ccc2[nH]nnc2c1", "quantityKind": "inhibition at 10 µg/mL", "numericResult": 49.9}
{"compound": "O=C(NCc1ccccc1)c1ccc2[nH]nnc2c1", "quantityKind": "inhibition at 10 µg/mL", "numericResult": 15.9}
{"compound": "c1ccc(CNCc2ccc3[nH]nnc3c2)cc1", "quantityKind": "inhibition at 10 µg/mL", "numericResult": 46.5}
{"compound": "Cc1ccccc1NC(=O)c1ccc2[nH]nnc2c1", "quantityKind": "inhibition at 10 µg/mL", "numericResult": 12.6}

Next compound, inhibition at 10 µg/mL to be filled in.
Query: inhibition at 10 µg/mL; subject: CCCCNCc1ccc2[nH]nnc2c1 1.55
